compounds and their reported log10 TGI
System: SR leukemia
experiment notes: NCI tumour cell line growth inhibition, 48 h
Where a SMILES comes first, the peptide text is derived from it. The star is where a group is joined. Fmoc = O=C(OCC1c2ccccc2-c2ccccc21)*; Boc = CC(C)(C)OC(=O)*
Hi team, quick reminder: these entries are log10 of TGI (µM).

>>> observed_value("COC(=O)C1=C(O)C(C(=O)OC)[C@]2(O)[C@H](C(=O)OC)[C@H]1C[C@@H](c1c(Cl)cccc1Cl)[C@H]2C(=O)OC (stereo not given in full)")
0.69

Entry under test: CC(C)(C)OC(=O)NCCCCC(NC(=O)OCC1c2ccccc2-c2ccccc21)C(=O)N1CCCC1C(=O)NCC(N)=O (stereo not drawn) (Fmoc-Lys(Boc)-Pro-Gly-NH2; configuration not given here) . Its log10 TGI was 1.69

====

compounds and their reported TGI
Tested on: T-47D breast
experiment notes: NCI tumour cell line growth inhibition, 48 h
Express the result in µM but write the number alone.

>>> observed_value("NCCCNC1(c2cc3ccccc3s2)CCCCC1")
6.96

Turning to the following compound.
Entry under test: O=C1/C(=C/c2cccc(Br)c2)CSC/C1=C\c1cccc(Br)c1 . Its TGI was 21.1

====

Test system: SR leukemia
experiment notes: NCI tumour cell line growth inhibition, 48 h; in the data active means GI50 below about 0.43 µM; inactive means the rest
Respond only with the outcome that fits, drawn from y (active), n (inactive)

Would you please look over these solved cases?
>>> group("CC(C)CCN=C(N)c1ccc(N2CCN(c3ccc(C(N)=NCCC(C)C)cc3)CC2)cc1")
"n"
>>> group("Fc1ccc(Nc2nc3nonc3nc2Nc2ccc(F)cc2)cc1")
"n"
>>> group("COc1ccc(OC)c(/C=C(/C)[N+](=O)[O-])c1")
"y"
>>> group("COC(=O)C1=C(C)NC(C)=C(C(=O)OC)C1/C=C(Cl)/C=C/c1ccccc1")
"n"
>>> group("NC(=O)c1cc(-c2ccc(F)cc2)cc(-c2ccncc2)c1N")
"n"
>>> group("Cn1ccnc1C(=O)/C=C/c1ccccc1")
"n"
>>> group("CC[C@@H](C(=O)[C@@H](C)[C@@H](O)[C@H](C)[C@@H]1O[C@@H]([C@@H](CC)C(=O)N(CC)CC)CC[C@@H]1C)C1O[C@]2(C=CC(=O)[C@]3(CC[C@@](C)([C@H]4CC[C@](O)(CC)[C@H](C)O4)O3)O2)[C@H](C)C[C@@H]1C (stereo not given in full)")
"n"
>>> group("COc1cc2c(cc1Nc1nc(Nc3ccsc3C(N)=O)c3cc[nH]c3n1)N(C(=O)CN(C)C)CCC2(C)C")
"y"

Please share the test call associated with O=[N+]([O-])c1c(Br)sc(Br)c1[N+](=O)[O-] . n

Please share the test call associated with Cc1c(COc2cc(OCc3cccc(C#N)c3)c(CN3C[C@H](O)C[C@@H]3C(=O)O)cc2Cl)cccc1-c1ccc2c(c1)OCCO2 . n

====

Test system: RPMI-8226 leukemia
experiment notes: NCI tumour cell line growth inhibition, 48 h
Would you please tag the item Satisfied when its TGI is 50 µM or above, and Not satisfied when it is below?

>>> group("O=C(CC1(O)C(=O)Nc2c(Cl)cc(Cl)cc21)c1cccc2ccccc12 (configuration not stated)")
"Not satisfied"
>>> group("Cc1cc(Cl)ccc1NC(=O)c1cc2ccccc2cc1O")
"Not satisfied"
>>> group("COc1ccc(/C(C#N)=C/c2ccc(OC)c(OC)c2)cc1")
"Satisfied"

// inclusive: TGI at least 50 µM? input: CSCCCNC(=O)c1csc(-c2csc(C(CNC(=O)OC(C)(C)C)CNC(=O)OC(C)(C)C)n2)n1 Not satisfied

// inclusive: TGI at least 50 µM? input: CCc1ccc2nc(-c3ccc(O)cc3)sc2c1 Not satisfied

// inclusive: TGI at least 50 µM? input: CNC(=O)N(C)COC Satisfied

// inclusive: TGI at least 50 µM? input: Nc1nc(-c2ccccc2)nc(N)c1N=O Satisfied

// inclusive: TGI at least 50 µM? input: COc1ccc(/C=c2\sc3n(c2=O)C(N)=C(C#N)C(c2ccc(OC)cc2)C=3c2nc3ccccc3[nH]2)cc1 (configuration not stated) Satisfied

// inclusive: TGI at least 50 µM? input: O=C1CCCC/C1=C\c1ccc(Br)cc1 Satisfied

// inclusive: TGI at least 50 µM? input: O=C1CCC(=O)N1n1c(Cc2ccc(Cl)cc2)n[nH]c1=O Satisfied

====

compounds and their reported TGI
System: SF-268 CNS
experiment notes: NCI tumour cell line growth inhibition, 48 h
Where a SMILES comes first, the peptide text is derived from it. The star is where a group is joined. ONb = O=[N+]([O-])c1ccc(CO*)cc1; Boc = CC(C)(C)OC(=O)*

For orientation, consider the following solved cases.
>>> observed_value("COC(=O)C1=C(O)C(C(=O)OC)[C@]2(O)[C@H](C(=O)OC)[C@H]1C[C@@H](c1c(Cl)cccc1Cl)[C@H]2C(=O)OC (some centres not stated)")
"12.9 µM"
>>> observed_value("N#Cc1c(N)nc(N2CCOCC2)c(C#N)c1-c1cccnc1")
"> 100 µM"
>>> observed_value("Nc1nc(N)c2ncn(Cc3ccccc3CCl)c2n1")
"> 100 µM"
>>> observed_value("O=c1[nH]c(Nc2cc(Cl)cc(Cl)c2)nc2nc[nH]c12")
"> 75 µM"
>>> observed_value("CC(C)C(C)C(C)(C)P(C)(C)=O (configuration not stated)")
"> 100 µM"
>>> observed_value("O=C(CCCCCCC(=O)Nc1cccnc1)NO")
"> 61 µM"

Entry under test: Oc1[nH]c2ccc(Cl)cc2c1/C=c1/ccc2c(c1)N=C(c1ccc(F)cc1)N=2 . Its TGI was 4.37 µM

Entry under test: O=CC[C@H]1CCc2ccccc2C12CCC(=O)CC2 . Its TGI was > 100 µM

Entry under test: CCOC(=O)C(=Cc1ccc(Oc2ccccc2)cc1)C(=O)OCC . Its TGI was 9.19 µM

Entry under test: O=S(=O)(O)ON=C1c2ccccc2-c2ccccc21 . Its TGI was > 100 µM

Entry under test: Brc1ccc2c([C@H]3CN[C@@H](c4c[nH]c5cc(Br)ccc45)CN3)c[nH]c2c1 . Its TGI was 20.4 µM

Entry under test: Cc1cc(Cc2c(F)c(F)c(C(c3cc(C)no3)c3c(F)c(F)c(F)c(F)c3F)c(F)c2F)on1 (configuration not stated) . Its TGI was > 100 µM

Entry under test: CCCCS(=O)(=O)CCC(N)C(=O)O (configuration not stated) . Its TGI was > 100 µM

Entry under test: CCOC(=O)C1OC(C2(C)OC3(OC4(C=CC3O)OC(C(C)C(=O)C(C)C(O)C(C)CC(C)c3c(Cl)cc(C)c(O)c3C(=O)O)C(C)CC4C)C(C)C2OC)CC1O (configuration not stated) . Its TGI was 6.85 µM

Entry under test: CC1(C)[C@@H](O[C@@H]2OC[C@@H](O[C@@H]3O[C@H](CO)[C@@H](O)[C@H](O)[C@H]3O[C@@H]3OC[C@@H](O)[C@H](O)[C@H]3O)[C@H](O)[C@H]2O[C@@H]2O[C@H](CO)[C@@H](O)[C@H](O)[C@H]2O)CC[C@]2(C)[C@H]3CC[C@]45OC[C@@]6(CC[C@](C)(C=O)C[C@H]64)[C@H](O)C[C@@]5(C)[C@]3(C)CC[C@@H]12 . Its TGI was 1.99 µM

Entry under test: CC(C)CC(NC(=O)OC(C)(C)C)C(=O)NC(CCC(=O)OCc1ccc([N+](=O)[O-])cc1)C(=O)OCc1ccc([N+](=O)[O-])cc1 (stereo not drawn) (Boc-Leu-Glu(ONb)-ONb; configuration not given here) . Its TGI was 39.3 µM

====

System: 786-0 renal
experiment notes: NCI tumour cell line growth inhibition, 48 h
readout label: TGI

>>> observed_value("CCOC(=O)c1ccc(C(=O)/C(C(C)=O)=C2\\CCCN2C)n1C")
"> 100 µM"

Entry under test: O=C(CC1(O)C(=O)Nc2c(Cl)cc(Cl)cc21)c1cccc2ccccc12 (stereo not given) . Its TGI was 29.7 µM

Entry under test: CSc1c(C#N)c(N)nc2c(N=Nc3ccc(Cl)cc3)c(N)nn12 . Its TGI was 7.1 µM

Entry under test: C#CC1(O)C(COP(=O)(O)OCC2OC(n3ccc(NCCCCCCCCCCCCCCCCCC)nc3=O)C(O)C2O)OC(n2ccc(N)nc2=O)C1O (stereo not given) . Its TGI was > 100 µM

Entry under test: c1csc(-c2cc(-c3cccs3)c(-c3cccs3)s2)c1 . Its TGI was > 100 µM

Entry under test: Cc1cc(C)nc(NS(=O)(=O)c2ccc(Nc3c4ccc(Cl)cc4nc4c(C(=O)Nc5ccc(S(N)(=O)=O)cc5)cccc34)cc2)n1 . Its TGI was 28.7 µM

Entry under test: C/C(=C/C(=O)Nn1c(Cc2ccccc2)n[nH]c1=O)C(=O)O . Its TGI was > 100 µM

Entry under test: CC(C)C1=CCC2C(=C1)CCC1C(C)(C(=O)O)CCCC21C (stereo not given) (tested in a mixture with another compound) . Its TGI was > 100 µM

Entry under test: Cc1cccnc1/N=C/c1c(O)n(C)c(=O)[nH]c1=O . Its TGI was > 100 µM

Entry under test: CCOC(=O)C(C(=S)Nc1ccccc1)c1nn2c(=O)cc(C)nc2s1 (stereo not given) . Its TGI was > 100 µM

Data origin: PubChem BioAssay (NCI)
